target: collagen; test: SPR (Biacore 2000), collagen immobilised on CM-3 chip, peptide in solution 100 µM to 1.5 µM, from on-off kinetics
reported_property: pKd
// pKd: -log10(molar conc.)

Q. Entry RRANAALKAGELYKSILYGC [… (SILY) peptide] : reported pKd = ?
A. 5.92
